The reported numbers originate from patent US8952024B2.

Test system: wild oat (Avena fatua)
assay overview: Test B pre-/postemergence plant response
Format: in vivo
run parameters: 62 g ai/ha, postemergence; 0 is no effect, 100 is complete control; 13 to 15 days
Description: […] Treated plants and controls were maintained in a greenhouse for 13 to 15 days, after which time all treated plants were visually evaluated and compared to controls. […]
measure: Oat, Wild plant response rating (0 to 100 scale)

compound: Cc1ccccc1-c1ncc(C(=O)C2=C(O)CCCC2=O)c(=O)n1-c1ccccc1
study target: wild oat (Avena fatua)
value reported: 0

compound: Cc1ccc(-c2ncc(C(=O)C3=C(O)CCCC3=O)c(=O)n2-c2ccccc2)cc1
study target: wild oat (Avena fatua)
value reported: 30

compound: COCCCn1c(-c2cccc(Br)c2)ncc(C(=O)C2=C(O)CCCC2=O)c1=O
study target: wild oat (Avena fatua)
value reported: 5

compound: COCC(C)n1c(-c2ccccc2)ncc(C(=O)C2=C(O)CCCC2=O)c1=O (stereo not drawn)
study target: wild oat (Avena fatua)
value reported: 5

compound: CC(C)CC(=O)OC1=C(C(=O)c2cnc(-c3ccccc3)n(-c3ccccc3)c2=O)C(=O)CCC1
study target: wild oat (Avena fatua)
value reported: 10

compound: COCCCn1c(-c2cc(F)cc(F)c2)ncc(C(=O)C2=C(O)CCCC2=O)c1=O
study target: wild oat (Avena fatua)
value reported: 80
